meta.source: PubChem BioAssay AID504832

assay: Primary qHTS for delayed death inhibitors of the malarial parasite plastid, 48 hour incubation; conditions: P. falciparum luciferase growth in erythrocytes; series mostly up to 28.7 µM
Out of some 310,000 compounds screened, about 18,000 (5.8%) were called active. About 22% were inconclusive and are not listed. Calls follow the shape of the dose curve; as a rule, active = well fitted inhibition curve with a large enough effect; inconclusive = small, poorly fitted or top-dose-only effect, or another doubt; inactive = no such curve, though single readings can be large or run the other way. This excerpt belongs to a sample that is enriched for actives.
Would you mind answering with one of these outcomes? active, inactive

Q: How was COc1cccc(NC(=O)CSc2nnc(-c3cccnc3)o2)c1 classified in this test?
Ans: inactive

----------
experiment: Primary qHTS for delayed death inhibitors of the malarial parasite plastid, 48 hour incubation; conditions: P. falciparum luciferase growth in erythrocytes; series mostly up to 28.7 µM
The whole screen tested about 310,000 compounds, of which about 18,000 (5.8%) were called active. Not shown: some 22% with an inconclusive outcome. Calls come from the whole dose curve; as a rule, active = well fitted inhibition curve with a large enough effect; inconclusive = small, poorly fitted or top-dose-only effect, or another doubt; inactive = no such curve, though single readings can be large or run the other way. The full list was thinned out, with actives kept by preference.
Would you mind answering with one of these outcomes? 1.0 = active, 0.0 = inactive

INSERT INTO results (compound, classassignment) VALUES
  ('Cc1cccc2cc(CN(Cc3cccs3)C(c3nnnn3C3CCCC3)C(C)C)c(=O)[nH]c12 (centres undefined)', 1.0),
  ('CCOc1cc(C(C(=O)NCC2CCCO2)N(C(=O)Cn2nnc3ccccc32)c2cccc(OC)c2)ccc1O (centres undefined)', 0.0),
  ('Cc1ccc(N(C(=O)Cc2cccs2)C(C(=O)NCC2CCCO2)c2ccncc2)cc1 (centres undefined)', 0.0),
  ('CCC(=O)Nc1ccccc1C(=O)N1CCN(Cc2ccccc2)CC1', 0.0),
  ('COC(=O)CNC(=O)c1cc(-c2ccncc2)nc2ccccc12', 0.0),
  ('Cc1ccc2nc(-c3ccccn3)cc(C(=O)Nc3ccc4c(c3)OCO4)c2c1', 0.0);

Field: next compound
Q: How was COCC(=O)Nc1c(C(=O)N2CCCC2)oc2ccccc12 classified in this test?
Ans: 0.0

----------
experiment: Primary qHTS for delayed death inhibitors of the malarial parasite plastid, 48 hour incubation; details: P. falciparum luciferase growth in erythrocytes; series mostly up to 28.7 µM
The whole screen tested about 310,000 compounds, of which about 18,000 (5.8%) were called active. Inconclusive results (about 22%) are left out. The call rests on the fitted dose curve; in most records, active means well fitted inhibition curve with a large enough effect; inconclusive means small, poorly fitted or top-dose-only effect, or another doubt; inactive means no such curve, though single readings can be large or run the other way. This excerpt belongs to a sample that is enriched for actives.
Would you mind answering with one of these outcomes? active, inactive

Some entries whose results are on file:
INSERT INTO measurements (compound, classassignment) VALUES
  ('CC(=O)c1cccc(NC(=O)C2CCN(C(=O)c3ccccc3Cl)CC2)c1', 'inactive'),
  ('Cc1ccccc1C(=O)N1CCC(C(=O)Nc2ccc(S(=O)(=O)N(C)C(C)C)cc2)CC1', 'active'),
  ('Cc1ccc(N(C(=O)CNC(=O)c2ccco2)C(C(=O)NC2CCCC2)c2ccncc2)cc1 (stereo not given)', 'inactive'),
  ('COc1ccc(C(c2nnnn2Cc2cccs2)N2CCN(c3ccccc3)CC2)cc1OC (stereo not given)', 'active'),
  ('O=C(COc1ccc(Cl)cc1Cl)N/N=C/c1ccccn1', 'inactive'),
  ('COc1cc(C(C(=O)NC2CCCC2)N(C(=O)c2ccco2)c2ccccc2C(C)=O)cc(OC)c1OC (stereo not given)', 'inactive');

Field: next compound
Q: How was CCc1nnc(NC(=O)C2CCN(C(=O)c3ccccc3C)CC2)s1 classified in this test?
Ans: inactive

----------
assay: Primary qHTS for delayed death inhibitors of the malarial parasite plastid, 48 hour incubation; conditions: P. falciparum luciferase growth in erythrocytes; series mostly up to 28.7 µM
The whole screen tested about 310,000 compounds, of which about 18,000 (5.8%) were called active. Roughly 22% stayed inconclusive and do not appear here. Calls follow the shape of the dose curve; as a rule, active = well fitted inhibition curve with a large enough effect; inconclusive = small, poorly fitted or top-dose-only effect, or another doubt; inactive = no such curve, though single readings can be large or run the other way. The list comes from a sample in which actives are over-represented; it also holds close analogues and randomly drawn compounds.
Would you mind answering with one of these outcomes? YES = active, NO = inactive

Some entries whose results are on file:
INSERT INTO assay_data (compoundstructure, classassignment) VALUES
  ('CCSc1nc2sc3c(c2c(=O)n1-c1ccc(C)cc1)CCN(C)C3', 'YES'),
  ('COc1ccccc1N(C)S(=O)(=O)c1ccc(C(=O)NC2CCCCCC2)cc1', 'NO'),
  ('COc1ccccc1CNC(=O)Cn1cc2c(n1)CCCC2', 'NO'),
  ('COc1ccc(CCNC(=O)CN2CCC(n3nnc4cc(F)ccc43)CC2)cc1OC', 'YES');

Q: How was CN(C)CCCCCN(C)Cc1cc2ccccc2o1 classified in this test?
Ans: YES
